// reported 24 h Stability RE per item
Experiment description: Stability test of analytes in rat plasma (QC samples)
Format: physicochemical
Experimental parameters: low concentration, autosampler at 4 °C for 24 h
Response body: numeric value in %, unit text excluded.

Sample records with 24 h Stability RE:
O=C1C[C@@H](c2ccc(O[C@@H]3O[C@H](CO)[C@@H](O)[C@H](O)[C@H]3O)cc2)Oc2cc(O)ccc21; 2.03
O=c1ccc2ccc(O)c(O)c2o1; −13.85
O=C(/C=C/c1ccc(O[C@@H]2O[C@H](CO)[C@@H](O)[C@H](O)[C@H]2O)cc1)c1ccc(O)cc1O; 4.99
CC1(C)[C@@H](O)CC[C@]2(C)[C@H]3C(=O)C=C4[C@@H]5C[C@@](C)(C(=O)O)CC[C@]5(C)CC[C@@]4(C)[C@]3(C)CC[C@@H]12; 13.49
COc1cc2cc(Oc3ccc4ccc(=O)oc4c3)c(=O)oc2cc1O; −11.79
O=C(/C=C/c1ccc(O)cc1)c1ccc(O)cc1O; 8.75

Given item "CC1(C)[C@@H](O[C@H]2O[C@H](C(=O)O)[C@@H](O)[C@H](O)[C@H]2O[C@@H]2O[C@H](C(=O)O)[C@@H](O)[C@H](O)[C@H]2O)CC[C@]2(C)[C@H]3C(=O)C=C4[C@@H]5C[C@@](C)(C(=O)O)CC[C@]5(C)CC[C@@]4(C)[C@]3(C)CC[C@@H]12" , the value recorded as its 24 h Stability RE is 11.79

Given item O=c1ccc2ccc(O)cc2o1 [HDC, 7-hydroxycoumarin] , the value recorded as its 24 h Stability RE is −1.43

Given item "O=C1C[C@@H](c2ccc(O)cc2)Oc2cc(O)ccc21" , the value recorded as its 24 h Stability RE is 6.72
